# key: entry, value: melting point

| Compound | melting point |
| --- | --- |
| CCOC(COC1CC2C3CCC4=CC(=O)CCC4(C)C3(F)C(O)CC2(C)C1(O)C(=O)CO)OCC (configuration not stated) | 208 to 210 °C |
| O=C(C1CCCCC1)N1CC(=O)N2CCOc3ccccc3C2C1 (configuration not stated) | 92 to 93 °C |
| CCN(CC)c1ccc([N+](=O)[O-])cn1 | 75 to 76 °C |
| CC(=O)c1nc2cc(Cl)c(OCC(F)(F)F)cc2cc1O | 104 to 105 °C |
| CCOC(=O)C(=CNC1CC1)C(=O)c1cc(Cl)c(F)c(F)c1F | 71 to 73 °C |
| O=C(COC1CCCCO1)c1ccccn1 (configuration not stated) | 63 to 65 °C |
| CCc1cc(C(=O)c2ccccc2Cl)c(-n2c(C)nnc2CNC(=O)Nc2cccc(CC(=O)OC(C)(C)C)c2)s1 | 178 to 179 °C |

----------
# melting point per entry

| Compound | melting point |
| --- | --- |
| Cc1c(C)c2c(c(C)c1Br)C(=O)C(C)(C)O2 | 92 to 93 °C |
| CNC(=O)Nc1ccc(Cc2cc(C)c(C(=O)c3ccc(Cl)cc3)n2C)nc1 | 234 to 236 °C |
| COc1ccc(C(=O)Nc2c(Cl)cncc2Cl)c2c1OCC2CC(=O)NCc1ccccc1Cl (centres undefined) | 288 to 289 °C |
| CCCN1c2ccc3c(c2CC1C(N)=O)CC(N)CC3 (single isomer, unassigned; (+)) | 230 °C |

----------
This listing pairs compounds with measured melting point.

| Compound | melting point |
| --- | --- |
| CCCOc1ccc(S(C)(=O)=O)cc1-c1nc(OC)c2[nH]nc(CC)c2n1 | 137 to 139 °C |
| Cc1ccccc1NC(=O)CN1CC2CCC(C1)N2S(=O)(=O)c1ccccc1Cl | 170 to 171 °C |
| O=C1CCCC2=C1C(c1cccc([N+](=O)[O-])c1)C=C(C(F)(F)F)N2 (stereo not given) | 215 to 216 °C |
| O=C(O)Cc1ccn(-c2ccc(F)cc2)c1 | 100 to 102 °C |
| CC(=O)NCP(=O)(O)O | 171 to 175 °C |

----------
| Compound | melting point |
| --- | --- |
| CS(=O)(=O)c1ccccc1SCc1ccccc1 | 132 to 133 °C |
| Cc1nc2c(N)nc3ccccc3c2n1CCS(C)(=O)=O | 242 to 245 °C |
| COC(=O)c1cc(C(=O)NC2CCCC2)c2cc(Cc3ccc(F)cc3)cnc2c1O | 221 to 222 °C |
| CN(C)C(=S)Oc1ccc(S(=O)(=O)c2ccc(C#N)cc2)cc1 | 158 to 167 °C |
| NSc1ccc([N+](=O)[O-])cc1C(Cl)(Cl)Cl | 105 °C |
| CCCCCC(CC(=O)NO)C(=O)NC(C(=O)N1CCCC1CO)C(C)C (stereo not drawn) | 148 to 149 °C |
| OCCn1nnnc1S | 135 to 137 °C |
| CCCC(C)CNc1cccc(-c2ccnc3c(C(=O)c4cccs4)cnn23)c1 (stereo not drawn) | 133 to 135 °C |

----------
| Compound | melting point |
| --- | --- |
| COc1ccc(-n2c(-c3ccccc3)cc3c2CCCC3)cc1 | 132 to 133 °C |
| CN(N=Cc1ccccc1)C(=NC(=O)CN1C(=O)c2ccccc2C1=O)NCCCOc1cccc(CN2CCCCC2)c1 | 84.5 °C |
| COc1ccc(CC(C)=O)cc1S(N)(=O)=O | 194 to 196 °C |
| CN1CCC2(CCc3cc4ccccc4n3C2)C1 (stereo not drawn) | 55 to 58 °C |
| COc1ccc2[nH]c3c(c2c1[N+](=O)[O-])CCC3O (stereo not drawn) | 230 °C |
| CCOCc1nc2c(N)nc3cc(S(C)(=O)=O)ccc3c2n1CCCOC | 166 to 168 °C |
| Cc1ccc(-c2sc(N)c(C(=O)c3ccc(Cl)cc3)c2CN(C2CCCCC2)C2CCCCC2)cc1 | 191 to 194 °C |
| O=C(Nc1cccc2c1C(=O)c1c-2n[nH]c1-c1ccc(C(=O)N2CCC[C@H]2CO)s1)NN1CCOCC1 | 267 to 268 °C |
| Cc1cc(C)c(C(O)c2cc(-n3ccnc3)ccc2Cl)c(C)c1 (stereo not drawn) | 206 to 207 °C |
| C[C@@H](CO)[C@](O)(Cn1cncn1)c1ccc(F)cc1F | 93 to 95 °C |
| CCCCCCCCCCCC#Cc1ccoc1C=O | 56 to 57 °C |
| CC(=O)NC[C@H]1CN(c2ccc(C(=O)c3ccc[nH]3)cc2)C(=O)O1 | 202 to 205 °C |
| CCCCn1cc(/C=C(\Cc2cc3c(cc2OC)OCO3)C(=O)O)c(-c2ccc(OC)cc2OCc2ccccc2C(=O)O)n1 | 226 to 227 °C |

----------
The entries below are paired with their reported melting point.
Metric Name: melting point

| Molecule | Measured Value |
| --- | --- |
| O=C1NCc2c1cc1ccc3c(c1c2-c1ccc2c(c1)OCO2)OCC3 | 275 to 277 °C |
| COC(=O)C(Oc1ccc(CCCCCCCl)cc1)c1ccc(Sc2ccc(Cl)cc2)cc1 (stereo not drawn) | 122 to 124 °C |
| Cc1oc(-c2ccccc2)nc1COc1ccc(/C=C/CO)cc1 | 134 to 135 °C |
| CCOC(=O)c1c(CCl)nc2cc(OC)c(OC)cc2c1-c1ccc(F)cc1 | 147 to 148 °C |
| COc1cc(C(=O)N2Cc3ccc(C(=O)NCc4c(CO)cnc(C)c4O)n3Cc3ccccc32)ccc1-c1ccccc1C | 179 °C |
| NCC1(O)C2CC3CC(C2)CC1C3 (stereo not drawn) | 154 to 156 °C |
| CC(=O)OC1CSC(Oc2ccc(C#N)nc2C)C(OC(C)=O)C1OC(C)=O (stereo not drawn) | 128 to 131 °C |
| CCOC(=O)C(C(=O)OCC)C(=O)c1ccc2oc3ncccc3c(=O)c2c1 | 137 to 138 °C |
| CC1(c2ccccc2)OCC(OCc2ccccc2)CO1 (stereo not drawn) | 87 to 88 °C |
| C=CCc1cc2c(c(CC=C)c1O)CCC(=O)N2 | 118 to 119 °C |
| CCOC(=O)C1=C(C(F)(F)F)Nc2n[nH]cc2C1c1ccccc1OC (stereo not drawn) | 144 to 146 °C |
| Oc1ccc(CC2NCCC3=C2CCCC3)cc1 (single isomer, unassigned; (+)) | 154 to 156 °C |
| COc1cc2c(-c3cc4cc(F)cnc4[nH]3)cn(CCN3CCOCC3)c2cc1OC | 205 to 210 °C |
| O=C1NC(=O)C(=Cc2ccc(N3CCC(NC[C@H](O)COc4ccccc4)CC3)cc2)S1 | 208 to 210 °C |
| NS(=O)(=O)NC(=O)CCCCCC1CCSS1 (stereo not drawn) | 130 to 132 °C |
| O=C(O)c1ccc(-c2c3ccccc3nn2Cc2ccc(F)cc2)cc1 | 237 to 239 °C |
| Clc1ccc2c(c1)Cc1ccccc1CN2 | 137 to 141 °C |
| CC(=O)/C(=C(/Br)I)c1ccccc1 | 53 to 55 °C |
| CN(Cc1cc(-c2ccc(CC3SC(=O)NC3=O)cc2)cs1)C(=O)c1ccccc1 (stereo not drawn) | 134 °C |
| O=C(NCCC(F)(F)F)c1nc(Cl)c(Cl)[nH]1 | 177 °C |
| CS(=O)CCNC(=O)c1cccc(-c2cccc(Oc3cc(Cl)cc(Cl)c3)n2)c1 (stereo not drawn) | 158 to 159 °C |
| O=S(=O)(/C=C/c1ccc(I)cc1)CS(=O)(=O)/C=C/c1ccc(I)cc1 | 253 to 255 °C |
| CC1CCCN1CCCN1CCN(CCCN2CCC(F)(F)C2)C1=C(C#N)C#N (stereo not drawn) | 99 to 102 °C |
| CCCN(CCC)C(=O)Nc1nn(Cc2ccccc2)cc1C(=O)OCC | 114 to 115 °C |
| COc1cc(Nc2nc3cccc(-c4ccc(N)cc4)c3o2)cc(OC)c1OC | 192 to 196 °C |
| CC(=O)N[C@H]1CCC(=O)N2CCC[C@@H](C(=O)O)N2C1=O | > 250 °C |
| N#Cc1c[nH]c2c(NS(=O)(=O)c3cccc(Cl)c3)cccc12 | 204 to 205 °C |
| O=C1c2ccccc2C(=O)N1OCCBr | 98 °C |
| O=C(O)CCCSc1ccccc1O | 77 to 78 °C |
| Cc1ccnc2c1C(=O)CC(c1cc(Cl)sc1Cl)C2 (stereo not drawn) | 130 to 131 °C |
| O=C1CC([N+](=O)[O-])([N+](=O)[O-])CO1 | 100 to 102 °C |
| CC(Oc1ncn(-c2cccc(Cl)c2)n1)C(N)=O (stereo not drawn) | 143 to 145 °C |
| COc1cc(Nc2nccc(C(=O)Nc3ccccc3)n2)cc(OC)c1OC | 158 to 159 °C |
